experiment: Half life in CD1 mouse at 10 mg/kg, po administered via gavage by LC-MS/MS analysis; type: ADME, organism-based; conditions: in vivo
MEASURED_ATTRIBUTE: half-life (h)

# COMPOUND_STRUCTURE_STRING, UNITS_SYMBOL, OBSERVED_VALUE
rows = [
    ("C[C@H]1COCCN1c1nc(-c2cnc(N)cc2F)cc(C2(S(C)(=O)=O)CC2)n1", "h", 2.87),
]

====

target: Cytochrome P450 2D6 (Homo sapiens)
Sequence (P10635 whole entry): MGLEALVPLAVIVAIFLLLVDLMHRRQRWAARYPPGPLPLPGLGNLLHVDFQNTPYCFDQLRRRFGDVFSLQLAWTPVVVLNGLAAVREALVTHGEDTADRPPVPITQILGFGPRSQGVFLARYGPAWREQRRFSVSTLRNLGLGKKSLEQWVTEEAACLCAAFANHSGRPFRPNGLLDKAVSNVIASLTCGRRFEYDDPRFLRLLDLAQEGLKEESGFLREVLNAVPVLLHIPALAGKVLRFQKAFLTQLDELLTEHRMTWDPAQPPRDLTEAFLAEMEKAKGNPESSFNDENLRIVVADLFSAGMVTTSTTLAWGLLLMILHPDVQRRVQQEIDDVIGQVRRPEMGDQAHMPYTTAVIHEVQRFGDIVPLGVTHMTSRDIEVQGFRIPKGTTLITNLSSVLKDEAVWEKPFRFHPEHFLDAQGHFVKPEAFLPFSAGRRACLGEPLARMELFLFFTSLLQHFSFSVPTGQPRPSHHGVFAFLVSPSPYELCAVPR
pIC50: −log10 of the molar value.

# COMPOUND_STRUCTURE_STRING, pIC50
records = [
    ("C[C@H]1COCCN1c1nc(-c2cnc(N)cc2F)cc(C2(S(C)(=O)=O)CC2)n1", "< 5.00"),
]
